# Test system: YSK4
# Construct: gene MAP3K19
# Particulars: concentration: 1 μM, replicates: in singlicate; n = 1;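 also: KINOMEscan kinase panel screen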
Consider the following compounds; for each one, report its %Inh.
Write the figure, then the unit, nothing else.

[
  {
    "Compound": "COc1ccc(Nc2nccc(N3CCC(NC(=O)Nc4cccc(OC)c4)C3)n2)cc1 (stereo not shown)",
    "Reported property": "%Inh",
    "Result": "23%"
  },
  {
    "Compound": "c1ccc(-c2n[nH]cc2Nc2ccnc3ccccc23)nc1",
    "Reported property": "%Inh",
    "Result": "99.1%"
  },
  {
    "Compound": "O=C(Nc1cccc(-c2nn3ccccc3c2-c2ccnc(Nc3cccc(C(F)(F)F)c3)n2)c1)c1c(F)cccc1F",
    "Reported property": "%Inh",
    "Result": "0%"
  }
]

Provide %Inh values for the following items, in order.
1. CCS(=O)(=O)c1ccc(OC)c(Nc2nccc(-c3c(-c4cccc(NC(=O)c5c(F)cccc5F)c4)nn4ncccc34)n2)c1
2. COc1ccc(Nc2nccc(NCCNC(=O)c3cc4ccccc4s3)n2)cc1
3. Cc1occc1-c1ncc(OC[C@@H](N)Cc2c[nH]c3ccccc23)cc1-c1ccc2[nH]nc(C)c2c1.O=C(O)C(F)(F)F
4. O=C(O)C(F)(F)F.O=C(O)C(F)(F)F.O=c1[nH]ccc2nc(N[C@@H]3CCCNC3)nc(Nc3ccc(S(=O)(=O)N4CCOCC4)cc3)c12

1. 33%
2. 0%
3. 99.5%
4. 99.7%

---

# Test system: MKNK2
# Particulars: concentration: 1 μM, replicates: in singlicate; n = 1
Reported property: %Inh (%)
One number for each entry, in %.

Example cases with answers are listed next.
[
  {
    "Compound": "COc1ccc(CNC(=O)NC2CCN(c3ccnc(Nc4ccc(F)cc4)n3)CC2)cc1 [GSK1379788]",
    "Reported property": "%Inh",
    "Quantitative readout": 0
  },
  {
    "Compound": "COc1cc(Nc2nccc(N3CCC(NC(=O)c4cc5ccccc5s4)C3)n2)cc(OC)c1OC (stereo not drawn) [GSK1379760]",
    "Reported property": "%Inh",
    "Quantitative readout": 21
  },
  {
    "Compound": "Cl.c1ccc(-c2ccc3c(Nc4ccc5[nH]ncc5c4)ccnc3c2)nc1 [GW440137]",
    "Reported property": "%Inh",
    "Quantitative readout": 18
  },
  {
    "Compound": "CN1CCN(CCCNc2nccc(-c3c(-c4ccc(F)cc4)nn4cc(C(F)(F)F)ccc34)n2)CC1 [GW621581]",
    "Reported property": "%Inh",
    "Quantitative readout": 1
  },
  {
    "Compound": "Nc1ncnc2c1nc(-c1ccccc1)n2-c1ccccc1 [SKF-97293]",
    "Reported property": "%Inh",
    "Quantitative readout": 18
  }
]

Provide %Inh values for the following items, in order.
1. O=C(Nc1n[nH]c2nc(-c3ccc(O)cc3)ccc12)C1CC1 [SB-710363]
2. COc1cc(Nc2nccc(N3CCC(NC(=O)Nc4cccc(C(C)=O)c4)C3)n2)cc(OC)c1OC (stereo not drawn) [GSK1379753]
3. COc1cccc(C(=O)Nc2cccc(Oc3ccc4nc(NC(=O)C5CC5)cn4n3)c2)c1

1. 54
2. 62
3. 0

Provide %Inh values for the following items, in order.
1. COc1cc(Nc2ncc3c(C)nc(-c4cc5ccccc5[nH]4)n3n2)cc(OC)c1OC [GW869516]
2. CSc1cccc2c(-c3ccncn3)c(-c3ccc(F)cc3)nn12 [GW514786]
3. COc1ccc(Nc2nccc(NCCNC(=O)c3cc4ccccc4s3)n2)cc1 [GSK1379896]

[0, 1, 0]

Provide %Inh values for the following items, in order.
1. COc1ccc(Nc2nccc(N3CCC(NC(=O)Nc4cccc(OC)c4)C3)n2)cc1 (stereo not drawn) [GSK1379742]
2. O=C(O)C(F)(F)F.O=C(O)C(F)(F)F.O=c1[nH]ccc2nc(N[C@@H]3CCCNC3)nc(Nc3ccc(S(=O)(=O)N4CCOCC4)cc3)c12 [GSK2177277]
3. c1ccc(-c2cnc3nccnn23)cc1 [AH20685]
4. COC(=O)Nc1nc2cc(Oc3ccc(NC(=O)Nc4cc(C(F)(F)F)ccc4F)cn3)ccc2[nH]1.Cl.Cl [GW681170]
5. O=C(Nc1cccc(-c2nn3ccccc3c2-c2ccnc(Nc3cccc(F)c3)n2)c1)c1c(F)ccc(F)c1Cl [GSK357952]

1: 0; 2: 59; 3: 11; 4: 88; 5: 29

Provide %Inh values for the following items, in order.
1. COC(=O)Nc1nc2ccc(Oc3ccc(NC(=O)Nc4cc(C(F)(F)F)ccc4F)cc3)cc2n1C.Cl [GW692089]
2. C[C@@H](Oc1cc(-n2cnc3cc(-c4ccnc(NCCS(C)(=O)=O)c4)ccc32)sc1C(N)=O)c1ccccc1Cl [GSK907232]
3. Cn1cc(-c2ccc3c(c2)CCN3C(=O)Cc2cccc(Cl)c2)c2c(N)ncnc21 [GSK2606590]
4. Nc1n[nH]c2cnc(-c3ccccc3)cc12 [SB-642124]
5. CC(=O)Nc1nc2cnc(Nc3cc(NC(=O)c4cccc(C5(C#N)CC5)c4Cl)ccc3C)nc2s1
6. Cc1cccc(NC(=O)Nc2ccc(Oc3ncnc4ccn(C)c34)cc2)c1
7. CCS(=O)(=O)c1ccc(OC)c(Nc2nccc(-c3c(-c4cccc(NC(=O)c5c(F)cccc5F)c4)nn4ncccc34)n2)c1 [GSK326180]
8. COc1cccc(-c2ccc3c(NC(=O)C4CC4)n[nH]c3n2)c1 [SB-710903]

[90.2, 7, 23, 8, 0, 88, 12, 21]
